subjectOfTest: NAD-dependent protein deacetylase sirtuin-3, mitochondrial (Homo sapiens) (UniProt Q9NTG7)
Sequence (Q9NTG7 whole entry, the tested form may be a part): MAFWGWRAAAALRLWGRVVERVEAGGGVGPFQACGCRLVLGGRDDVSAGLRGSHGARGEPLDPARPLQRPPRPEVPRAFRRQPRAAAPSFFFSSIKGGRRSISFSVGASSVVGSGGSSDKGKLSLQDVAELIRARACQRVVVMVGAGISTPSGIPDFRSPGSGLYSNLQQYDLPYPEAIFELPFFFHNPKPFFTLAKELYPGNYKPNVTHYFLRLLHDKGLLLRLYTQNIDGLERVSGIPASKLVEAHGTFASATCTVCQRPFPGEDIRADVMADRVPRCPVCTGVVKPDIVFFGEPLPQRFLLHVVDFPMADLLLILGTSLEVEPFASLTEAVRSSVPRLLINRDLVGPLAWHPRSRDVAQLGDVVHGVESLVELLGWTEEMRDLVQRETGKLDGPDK
procedureText: Substrate activity at human N-terminal His-tagged SIRT3 (122 to 391 residues) expressed in Escherichia coli at 0.5 uM measured after 2 hrs in presence of NAD+ and trypsin by fluorescence assay
*1 amine or outer side, *2 acyl side, *3 side chain or, on linkers, in order; H or OH if unused. Where a SMILES comes first, the peptide text is derived from it. The star is where a group is joined. AMC = Cc1cc(=O)oc2cc(N*)ccc12; Suc = O=C(CCC(=O)[*:2])[*:1]; Decanoyl = CCCCCCCCCC(=O)*
Reported Activity by item:
Report the value in RFU with no unit label.

Example entries and their recorded answers appear below.
Q. Form field: Activity recorded for CCCCCCCCCC(=O)NCCCC[C@H](NC(=O)[C@H](CCCNC(=N)N)NC(=O)[C@H](CC(C)C)NC(=O)[C@H](CC(=O)O)NC(C)=O)C(=O)Nc1ccc2c(C)cc(=O)oc2c1 (Ac-DLRK(Decanoyl)-{AMC}) with NAD-dependent protein deacetylase sirtuin-3, mitochondrial (Homo sapiens) (UniProt Q9NTG7) (enter value)
A. 0.4

Q. Form field: Activity recorded for CCCCCCCCCC(=O)NCCCC[C@H](NC(=O)[C@H](CCCCN)NC(=O)[C@@H]1CCCN1C(=O)[C@H](CC(N)=O)NC(C)=O)C(=O)Nc1ccc2c(C)cc(=O)oc2c1 (Ac-NPKK(Decanoyl)-{AMC}) with NAD-dependent protein deacetylase sirtuin-3, mitochondrial (Homo sapiens) (UniProt Q9NTG7) (enter value)
A. 0.51

Q. Form field: Activity recorded for CC(=O)N[C@@H](CO)C(=O)N[C@@H](CC(C)C)C(=O)NCC(=O)N[C@@H](CCCCNC(=O)CCC(=O)O)C(=O)Nc1ccc2c(C)cc(=O)oc2c1 (Ac-SLGK(Suc)-{AMC}) with NAD-dependent protein deacetylase sirtuin-3, mitochondrial (Homo sapiens) (UniProt Q9NTG7) (enter value)
A. 0.48

Q. Form field: Activity recorded for CC(=O)N[C@@H](CC(C)C)C(=O)NCC(=O)N[C@@H](CO)C(=O)N[C@@H](CCCCNC(=O)CCC(=O)O)C(=O)Nc1ccc2c(C)cc(=O)oc2c1 (Ac-LGSK(Suc)-{AMC}) with NAD-dependent protein deacetylase sirtuin-3, mitochondrial (Homo sapiens) (UniProt Q9NTG7) (enter value)
A. 0.5

Q. Form field: Activity recorded for CC[C@H](C)[C@H](NC(=O)[C@H](CC(C)C)NC(=O)[C@H](CCCNC(=N)N)NC(C)=O)C(=O)N[C@@H](CCCCNC(C)=O)C(=O)Nc1ccc2c(C)cc(=O)oc2c1 (Ac-RLIK(Ac)-{AMC}) with NAD-dependent protein deacetylase sirtuin-3, mitochondrial (Homo sapiens) (UniProt Q9NTG7) (enter value)
A. 2.66

Continuing:
Q. Form field: Activity recorded for CC(=O)NCCCC[C@H](NC(=O)[C@H](CC(C)C)NC(=O)[C@H](CCCCN)NC(=O)[C@H](Cc1ccc(O)cc1)NC(C)=O)C(=O)Nc1ccc2c(C)cc(=O)oc2c1 (Ac-YKLK(Ac)-{AMC}) with NAD-dependent protein deacetylase sirtuin-3, mitochondrial (Homo sapiens) (UniProt Q9NTG7) (enter value)
A. 0.54
